test description: Example 18 Part 2: multiple dose PK (20 mg QID) of 3,4-DAP and 3-N-acetyl metabolite in slow and fast acetylators
Assay type: in vivo, human
study conditions: both sexes, human, plasma, oral, 20 mg, Day 3, Dose 1, fast acetylators, 20 mg QID; read-out: Mean AUC0-4
Description: The following method was used to analyze concentrations of 3,4-diaminopyridine and N-(4-aminopyridin-3-yl)acetamide in plasma and urine samples for the experiments in Example 18. […] Samples were analyzed by using HPLC with positive ion electrospray MS/MS detection. […] The LC/MS/MS method was validated to quantify 3,4-DAP in human plasma in the linear calibration range of 0.500 to 500 ng/mL and from 1.00 to 1000 ng/mL for the 3-N-acetyl metabolite. […]
endpoint: AUC(0-t) (ng·h/mL)

1. Nc1ccncc1N : 24.9
